# Tested target: EPHB2 (UniProt P29323)
# Sequence (P29323 whole entry, looked up): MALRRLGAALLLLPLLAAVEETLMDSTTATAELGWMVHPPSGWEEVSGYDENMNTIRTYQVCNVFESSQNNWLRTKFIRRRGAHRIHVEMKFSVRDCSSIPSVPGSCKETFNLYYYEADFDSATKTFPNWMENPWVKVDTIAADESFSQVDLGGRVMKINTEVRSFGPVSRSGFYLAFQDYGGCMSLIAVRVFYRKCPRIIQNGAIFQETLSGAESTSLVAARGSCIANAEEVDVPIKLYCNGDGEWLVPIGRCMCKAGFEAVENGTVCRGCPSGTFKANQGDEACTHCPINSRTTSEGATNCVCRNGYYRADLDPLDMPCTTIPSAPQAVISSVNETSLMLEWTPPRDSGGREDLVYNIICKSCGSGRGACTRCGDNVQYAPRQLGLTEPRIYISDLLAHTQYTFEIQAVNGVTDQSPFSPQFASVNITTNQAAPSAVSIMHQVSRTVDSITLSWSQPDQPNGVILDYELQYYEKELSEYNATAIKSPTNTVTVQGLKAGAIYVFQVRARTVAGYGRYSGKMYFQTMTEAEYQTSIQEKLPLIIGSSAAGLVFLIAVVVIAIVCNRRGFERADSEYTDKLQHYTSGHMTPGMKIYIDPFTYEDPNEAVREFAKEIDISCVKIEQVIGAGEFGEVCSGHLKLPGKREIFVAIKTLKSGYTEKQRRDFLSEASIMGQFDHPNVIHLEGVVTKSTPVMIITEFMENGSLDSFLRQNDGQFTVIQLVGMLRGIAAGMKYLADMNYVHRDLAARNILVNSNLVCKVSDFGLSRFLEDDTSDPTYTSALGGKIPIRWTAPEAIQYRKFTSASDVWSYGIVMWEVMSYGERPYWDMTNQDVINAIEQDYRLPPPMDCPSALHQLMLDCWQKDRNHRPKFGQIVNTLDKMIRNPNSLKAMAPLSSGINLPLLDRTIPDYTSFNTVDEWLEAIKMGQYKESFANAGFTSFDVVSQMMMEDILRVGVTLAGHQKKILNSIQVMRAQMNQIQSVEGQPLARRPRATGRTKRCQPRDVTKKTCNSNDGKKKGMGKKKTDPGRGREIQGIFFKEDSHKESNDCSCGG
# Assay: phosphorylation enrichment, bacterial display (enrichment ratio); higher = better substrate or ligand; peptides without Tyr show the background;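 further: 11-residue human phosphosite peptides and single-mutation variants displayed on the E. coli surface, counted by deep sequencing, each peptide's frequency after selection divided by its frequency in the unselected input library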;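 further: frequency after pTyr selection over input frequency; kinase dosed for 20-30% of maximal phosphorylation in three min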
Label rule, in plain words: phosphorylation enrichment of 0.6 and up is fulfilled, under 0.6 is not fulfilled.

* HESEIYGKVCY [CSRP3_Y57_C58G] | fulfilled
* IWIFHYAKGQP [MPZ_Y82_S78W] | not fulfilled
* RSSPVYVGRVV [TGM2_Y219] | fulfilled
* DPGVSYCTREE [PDHA1_Y301_R302C] | fulfilled
* YTDPYYDYEIE [ZC3H18_Y372_A368T] | fulfilled
* SNKLYYQLEQE [PDPR_Y110] | fulfilled
* ASTHVYQIMNH [ITK_Y588] | not fulfilled
* NQELIYEGRRL [TBK1_Y354] | fulfilled
* VDSLRYIYPKL [EIF2B3_Y92_A87V] | not fulfilled
* HQEPVCSVAFS [TBL1X_Y509_Y509C] | fulfilled
* SHLEDYPFNAE [AKR1B10_Y310] | not fulfilled
* LGSWTYPKTVS [ROS1_Y144_T145P] | not fulfilled
* ETRWNYHFEVV [GCNT3_Y267_K266N] | not fulfilled
* VEFAKYGSLRG [RET_Y809_YF] | not fulfilled
* GDKKAYVRLAP [RPL23A_Y137_E133D] | not fulfilled
* EEQKRYYNAMK [SCN5A_Y1494_K1493R] | not fulfilled
* SSNLYYRWLTA [CNGA3_Y169] | fulfilled
* CTTIHYNYMGN [TP53_Y234_C238G] | fulfilled
* DVMDLYKTLRG [NR3C1_Y30_F29L] | not fulfilled
* LNLKEYNLVGG [GNAQ_Y356] | not fulfilled
* ARMTNCGLPRY [TSPAN12_Y138_Y138C] | not fulfilled
* PDSVDYRKKGF [CTSK_Y121_YF] | fulfilled
* CDIARYIVSQL [MAST2_Y461_P459A] | not fulfilled
* EYHRLYEEYTR [PIK3R1_Y467_D464H] | fulfilled
* FVTSMYNEILI [TRPV1_Y310_M315I] | fulfilled
* KILTHYKQPHT [KMT2D_Y5349_R5351Q] | not fulfilled
* RGYRQDAYDGK [HLA-A_Y140] | not fulfilled
* FSAGTYPRMEE [SYCN_Y108_L111M] | not fulfilled
* TVLWQYTGTRP [UGT1A1_Y337_R336Q] | not fulfilled
* RSFPSYYTSHV [NEFL_Y442] | fulfilled
* VDTAMYATMQR [TPO_Y55] | fulfilled
* KKCTRYIDCAL [ASPA_Y64_D68A] | not fulfilled
* DPNQQYYIAMD [TBX15_Y159_H156N] | fulfilled
* IETGRYEILTE | fulfilled
* EEQKRYFNAMK [SCN5A_Y1494_K1493R_YF] | not fulfilled
* FSALDYKIFFF [WDPCP_Y210_L205F_YF] | not fulfilled
* NFADPYRQLQF [CTNND2_Y503_YF] | not fulfilled
* CRPPYYHRNCM [HGD_Y334_F329C] | not fulfilled
* TFEPNYGTVKR [RAPGEF6_Y1447_Q1452R_YF] | fulfilled
* GGTTMYPGIAD [ACTC1_Y308] | not fulfilled
* VTSLKYSTSPY [BRIP1_Y916] | not fulfilled
* NVFGNYNQQPS [HNRNPA2B1_Y306_D302V] | not fulfilled
* GGCQEYTGAPF [NAXD_Y85_YF] | fulfilled
* RRFVFYFSFLL [PTEN_Y177_YF] | fulfilled
* PCLLRYLQLDF [ASB10_Y457_R453C] | not fulfilled
* KGFRGYSFDDI [TMEM230_Y110_YF] | not fulfilled
* INPIIYAFVGG [CCR5_Y297_E302G] | fulfilled
* DHTVNYVLKCR [PLEKHG4_Y1068_R1064H] | fulfilled
* FQEPVYSVAFS [TBL1X_Y509_H504Y_YF] | fulfilled
* KYRREYILSLE [GPC3_Y299_W296R] | not fulfilled

* * *

# Tested target: EPHB2 (UniProt P29323)
# Assay: phosphorylation enrichment, bacterial display (enrichment ratio); higher = better substrate or ligand; peptides without Tyr show the background
Here the recorded phosphorylation enrichment is given for each entry.
Quantity measured: phosphorylation enrichment

• IATTIYSGDKI [UGGT2_Y823_A821T] = 0.557
• KVKEQYQDVPM [PKP2_Y659] = 0.431
• GRPMDYHVSIT [OTOF_Y254_Q255H] = 0.453
• NTGGFYDLFGG [PTPN11_Y63_D61G_YF] = 0.899
• GREAEYSDKHG [EPHB4_Y574] = 0.44
• FGGTVYHSPVS [PRC1_Y511] = 0.418
• NQDRTYYERVR [SPEN_Y632_S635R] = 0.467

* * *

Here the recorded phosphorylation enrichment is given for each entry.
# Tested on: c-Abl (mouse)
# Assay: phosphorylation enrichment, bacterial display (enrichment ratio); higher = better substrate or ligand; peptides without Tyr show the background
Quantity measured: phosphorylation enrichment

- SVVVPYEAPEV [TP53_Y220_P222A]: 0.79
- SSNLYYRWLTA [CNGA3_Y169]: 3.22
- WCKPLYFSCAV [MMS22L_Y28_P27L]: 0.821
- HELFVYKSDEN [DOCK3_Y548_C550S_YF]: 1.11
- LDYNEYFRYLN [HPRT1_Y198_D201Y]: 1.81
- LNLKEYNLVGG [GNAQ_Y356]: 0.709
- PESCLYKESWI [IQGAP2_Y630_L635I]: 1.48

* * *

# System: AncSZ
# Assay: phosphorylation enrichment, bacterial display (enrichment ratio); higher = better substrate or ligand; peptides without Tyr show the background
Quantity measured: phosphorylation enrichment

* RREGVYRNNID [PTEN_Y46_L42R] | 0.55
* PHRSIYFSSPK [MPG_Y75_Y71H] | 0.498
* KHCEDYVCSYN [DSC1_Y846] | 1.14
* SSWPGYVRPLP [HSPB1_Y54] | 0.774
* KPGVNYYFRVS | 1.15
* FEKFLYFLPAS [DYNC2H1_Y346_H341Y_YF] | 1.5
* HNVAIYEGYAL [ACTC1_Y168_P166A] | 2.26
* EVVGRYSLHNA [MLH1_Y183_V185L] | 0.478
* HSDFQYSQRSQ [PKP2_Y168_YF] | 0.997
* FSDQVYRQRRK [TH_Y230] | 0.853
* FQSKHYACIRQ [TIMP3_Y182_YF] | 0.692
* FRARAYSFRGP [CHGA_Y381_G382S] | 0.697
* VGTKRYRAPEV [ACVRL1_Y375_M376R] | 0.443
* SNKLYYQLEQE [PDPR_Y110] | 1.37
* DPGVSYCTREE [PDHA1_Y301_R302C] | 1.12
* RRFVFYFSFLL [PTEN_Y177_YF] | 1.06
* FSALDYKIFFF [WDPCP_Y210_L205F_YF] | 1.57
* DENWFYTRPAS [RPS19_Y54_A57P] | 1.46
* QKINKYLTVPA [SLC9A1_Y683_N682K] | 1.77
* RDIHDYIKHLG [UNC13C_Y308] | 0.9
* CTTIHNNYMCN [TP53_Y234_Y234N] | 0.712
* IATTIYSGDKI [UGGT2_Y823_A821T] | 0.638
* VPVNGYQPVPA [ROR2_Y824] | 0.859
* RFVFFYSFLLK [PTEN_Y178_YF] | 1.44
* FVTSMYNEILI [TRPV1_Y310_M315I] | 1.16
* EWQQTYTFDSG [JUP_Y20_YF] | 1.06
* SNYRAYATEPH [TNNI3_Y29] | 0.49
* TFGQVYKGPHV [TNIK_Y40_R43P_YF] | 0.59
* PLDGEYFILQI [TP53_Y327_T329I] | 4.19

* * *

# Tested target: Jak2 (UniProt O60674)
# Sequence (O60674 whole entry, looked up): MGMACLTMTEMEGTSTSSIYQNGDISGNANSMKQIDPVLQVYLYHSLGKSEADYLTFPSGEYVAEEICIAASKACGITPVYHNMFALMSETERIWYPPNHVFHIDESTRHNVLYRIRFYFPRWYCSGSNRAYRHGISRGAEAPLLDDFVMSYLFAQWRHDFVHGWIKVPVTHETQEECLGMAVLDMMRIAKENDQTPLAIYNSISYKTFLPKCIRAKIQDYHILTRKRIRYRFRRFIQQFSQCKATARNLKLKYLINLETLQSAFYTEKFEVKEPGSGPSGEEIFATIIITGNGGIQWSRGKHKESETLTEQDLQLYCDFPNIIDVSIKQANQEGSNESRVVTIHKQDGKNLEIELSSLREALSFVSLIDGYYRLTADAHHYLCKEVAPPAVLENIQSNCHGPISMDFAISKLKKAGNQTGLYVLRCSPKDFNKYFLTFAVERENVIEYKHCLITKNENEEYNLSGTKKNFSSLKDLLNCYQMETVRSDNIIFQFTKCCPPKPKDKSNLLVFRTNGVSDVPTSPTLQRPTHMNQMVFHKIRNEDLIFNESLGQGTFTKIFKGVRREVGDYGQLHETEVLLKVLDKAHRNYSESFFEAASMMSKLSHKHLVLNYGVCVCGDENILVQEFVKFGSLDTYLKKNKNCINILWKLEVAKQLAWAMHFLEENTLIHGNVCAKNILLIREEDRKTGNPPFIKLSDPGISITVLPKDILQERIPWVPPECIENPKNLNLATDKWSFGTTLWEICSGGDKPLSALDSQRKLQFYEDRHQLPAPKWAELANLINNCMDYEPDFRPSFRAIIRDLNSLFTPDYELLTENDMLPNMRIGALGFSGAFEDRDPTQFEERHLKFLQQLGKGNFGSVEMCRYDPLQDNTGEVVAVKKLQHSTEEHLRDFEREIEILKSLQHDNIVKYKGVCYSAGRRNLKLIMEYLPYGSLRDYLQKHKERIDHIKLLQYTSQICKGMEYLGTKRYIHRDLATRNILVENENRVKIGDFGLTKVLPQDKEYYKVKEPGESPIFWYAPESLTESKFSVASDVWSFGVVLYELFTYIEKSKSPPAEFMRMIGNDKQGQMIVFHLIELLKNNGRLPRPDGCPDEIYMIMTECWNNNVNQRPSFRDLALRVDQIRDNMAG
# Assay: phosphorylation enrichment, bacterial display (enrichment ratio); higher = better substrate or ligand; peptides without Tyr show the background
Quantity measured: phosphorylation enrichment

• GRVYVYRLSEQ [ITGAE_Y551] = 0.83
• QMVGKYASSYM [AVPR2_Y124_M123K] = 0.717
• PTTKTYFPHFY [HBA1_Y43_D48Y] = 0.974
• HAKKNYGNSSV [HDX_Y197] = 0.396
• LGIDRYHAIVY [NPSR1_Y147_S143G] = 0.775
• EHAGEYGAEAL [HBA1_Y25_A20E] = 0.693
• SPFEVYVDKSQ [FLNA_Y373] = 0.99
• FEREQYADRTR [RBM4_Y355_A359T_YF] = 0.582
• IEEGTYGVVFR [CDK11B_Y449_YF] = 1.38
• PLFKICVAELI [MRPL28_Y230_Y230C] = 1.31
• QAKRKYQEVSK [FES_Y156_A159V] = 0.227
• TAPYNYSYIFK [RAB14_Y8] = 0.561
• FQLPFYNTVPS [BMPR1A_Y458_M460T_YF] = 0.704
• FGSLLYKYAFK [FANCD2_Y458] = 0.858
• PARLEYFENEK [IRS1_Y46_YF] = 2
• DDEESYENVPR [FCRL3_Y722_N721S] = 1.06
• RVKPIYFHTQG [AR_Y916_K911R] = 1.6
• DLDTDYGSGYP [RNASEH2A_Y206] = 1.14
• MSSLPYMKMIF [SLC4A11_Y853] = 1.65
• SRPTQYSSFSC [SPEM2_Y104] = 0.816
• ETLLFYGFRRS [POR_Y564_C566Y_YF] = 0.745
• RGDSAYHSQRH [ERBB3_Y1132] = 0.288
• PQGVGYPPQQQ [EP300_Y2219] = 0.915
• DSFATYFRWVL [H2BW1_Y84_R87W] = 5.48
• GRPMDYQVSIT [OTOF_Y254] = 0.727
• FLNSIYQSRDE [ROS1_Y2227_K2228Q] = 0.791
• LEQDEYALRSH [HADHB_Y244] = 2.54
• FGHTFYNQAIM [MCCC2_Y196_R193H] = 0.856
• ASTHVYQIMNH [ITK_Y588] = 0.55
